Where do the numbers come from? From ChEMBL document CHEMBL1157759.

assay procedure: Half life in human intestine S9 fraction at 2 uM by LC/MS/MS analysis
test readout: half-life at 2 µM

[
  {
    "compound": "C[C@H](NP(=O)(CO[C@@H]1C=C(F)[C@H](n2cnc3c(N)ncnc32)O1)Oc1ccccc1)C(=O)OC1CCC1 (stereo in doubt; 18r)",
    "test readout": "half-life at 2 µM",
    "result": "2.03 h"
  },
  {
    "compound": "CC(C)OC(=O)[C@H](C)NP(=O)(CO[C@@H]1C=C(F)[C@H](n2cnc3c(N)ncnc32)O1)Oc1ccccc1 (stereo in doubt; 24)",
    "test readout": "half-life at 2 µM",
    "result": "1.77 h"
  }
]

* * *

Tested on: PBMC
assay procedure: Metabolic stability in cathepsin A-overexpressing human PBMC assessed as compound degradation per ug of protein at 10 uM after 120 mins by scintillation counting
reported conditions: 2 h, 30 µM
test readout: Activity (pmol/min)

[
  {
    "compound": "CC(C)OC(=O)[C@H](C)NP(=O)(CO[C@@H]1C=C(F)[C@H](n2cnc3c(N)ncnc32)O1)Oc1ccccc1 (stereo in doubt; 24)",
    "test readout": "Activity",
    "recorded number": 20
  },
  {
    "compound": "CCCCOC(=O)[C@H](C)NP(=O)(CO[C@@H]1C=C(F)[C@H](n2cnc3c(N)ncnc32)O1)Oc1ccccc1 (some centres undefined)",
    "test readout": "Activity",
    "recorded number": 7.3
  },
  {
    "compound": "Nc1ncnc2c1ncn2[C@@H]1O[C@H](OCP(=O)(N[C@@H](Cc2ccccc2)C(=O)OCC2CCC2)Oc2ccccc2)C=C1F (some centres undefined)",
    "test readout": "Activity",
    "recorded number": 24
  },
  {
    "compound": "CCCCOC(=O)[C@H](Cc1ccccc1)NP(=O)(CO[C@@H]1C=C(F)[C@H](n2cnc3c(N)ncnc32)O1)N[C@@H](Cc1ccccc1)C(=O)OCCCC",
    "test readout": "Activity",
    "recorded number": 50
  },
  {
    "compound": "C[C@H](NP(=O)(CO[C@@H]1C=C(F)[C@H](n2cnc3c(N)ncnc32)O1)Oc1ccccc1)C(=O)OC1CCCC1 (some centres undefined)",
    "test readout": "Activity",
    "recorded number": 3
  },
  {
    "compound": "CC(C)COC(=O)CNP(=O)(CO[C@@H]1C=C(F)[C@H](n2cnc3c(N)ncnc32)O1)NCC(=O)OCC(C)C",
    "test readout": "Activity",
    "recorded number": 0
  },
  {
    "compound": "C[C@H](NP(=O)(CO[C@@H]1C=C(F)[C@H](n2cnc3c(N)ncnc32)O1)Oc1ccccc1)C(=O)OC1CCC1 (stereo in doubt; 18r)",
    "test readout": "Activity",
    "recorded number": 7.7
  },
  {
    "compound": "CC(C)COC(=O)[C@H](Cc1ccccc1)NP(=O)(CO[C@@H]1C=C(F)[C@H](n2cnc3c(N)ncnc32)O1)OCC(F)(F)F (some centres undefined)",
    "test readout": "Activity",
    "recorded number": 22
  },
  {
    "compound": "CCCCOC(=O)[C@H](CC)NP(=O)(CO[C@@H]1C=C(F)[C@H](n2cnc3c(N)ncnc32)O1)N[C@@H](CC)C(=O)OCCCC",
    "test readout": "Activity",
    "recorded number": 1.3
  },
  {
    "compound": "CC(C)COC(=O)CNP(=O)(CO[C@@H]1C=C(F)[C@H](n2cnc3c(N)ncnc32)O1)Oc1ccccc1 (some centres undefined)",
    "test readout": "Activity",
    "recorded number": 0.72
  },
  {
    "compound": "C[C@H](NP(=O)(CO[C@@H]1C=C(F)[C@H](n2cnc3c(N)ncnc32)O1)Oc1ccccc1)C(=O)OC1CCC1 (stereo in doubt; 18r(A))",
    "test readout": "Activity",
    "recorded number": 3.2
  },
  {
    "compound": "CCCCOC(=O)[C@H](C)NP(=O)(CO[C@@H]1C=C(F)[C@H](n2cnc3c(N)ncnc32)O1)N[C@@H](C)C(=O)OCCCC",
    "test readout": "Activity",
    "recorded number": 18
  },
  {
    "compound": "CC[C@H](NP(=O)(CO[C@@H]1C=C(F)[C@H](n2cnc3c(N)ncnc32)O1)N[C@@H](CC)C(=O)OCC(C)C)C(=O)OCC(C)C",
    "test readout": "Activity",
    "recorded number": 1.3
  },
  {
    "compound": "CCCOC(=O)[C@H](C)NP(=O)(CO[C@@H]1C=C(F)[C@H](n2cnc3c(N)ncnc32)O1)Oc1ccccc1 (some centres undefined)",
    "test readout": "Activity",
    "recorded number": 26
  }
]
